Reported IC50 values are given for each entry in this list.
Target: recombinant guinea pig liver TGase (Cavia cutleri (Guinea pig))
Assay: biochemical
Assay type: biochemical
Details: Table 3, value in brackets; read-out: IC50
Description: ENZYME INHIBITION BY COMPOUNDS 14a-c, 14l, 15a, 15d-k, 15m-q, 30a, 30r, 30t, 37a and 38a: For enzymology studies of these compounds, recombinant guinea pig liver TGase was expressed in Escherichia coli and effectively purified (Gillet, S. M. F. G. et al J. N., Prot. Exp. & Purif. 2004, 33, 256). The mode of inhibition was determined for the representative lead compound 14a through non-linear regression of initial rate data to the Michaelis-Menten equation (FIG. 1). […]
Field: numeric (µM). Do not append units.

{"compound": "O=C(/C=C/c1ccc([N+](=O)[O-])cc1)c1cc2ccccc2oc1=O [Compound 28a]", "IC50 [µM]": 48}

Next, consider the following compound.
Lookup: Supply IC50 value. Item: O=C(C=Cc1ccc([N+](=O)[O-])cc1)N(Cc1ccccc1)Cc1ccccc1 [Compound 26a, p-Nitrocinnamoyl dibenzyl amide]
Found: 57

* * *

Reported IC50 values are given for each entry in this list.
Target: recombinant guinea pig liver TGase (Cavia cutleri (Guinea pig), UniProt P08587)
Sequence (P08587 whole entry): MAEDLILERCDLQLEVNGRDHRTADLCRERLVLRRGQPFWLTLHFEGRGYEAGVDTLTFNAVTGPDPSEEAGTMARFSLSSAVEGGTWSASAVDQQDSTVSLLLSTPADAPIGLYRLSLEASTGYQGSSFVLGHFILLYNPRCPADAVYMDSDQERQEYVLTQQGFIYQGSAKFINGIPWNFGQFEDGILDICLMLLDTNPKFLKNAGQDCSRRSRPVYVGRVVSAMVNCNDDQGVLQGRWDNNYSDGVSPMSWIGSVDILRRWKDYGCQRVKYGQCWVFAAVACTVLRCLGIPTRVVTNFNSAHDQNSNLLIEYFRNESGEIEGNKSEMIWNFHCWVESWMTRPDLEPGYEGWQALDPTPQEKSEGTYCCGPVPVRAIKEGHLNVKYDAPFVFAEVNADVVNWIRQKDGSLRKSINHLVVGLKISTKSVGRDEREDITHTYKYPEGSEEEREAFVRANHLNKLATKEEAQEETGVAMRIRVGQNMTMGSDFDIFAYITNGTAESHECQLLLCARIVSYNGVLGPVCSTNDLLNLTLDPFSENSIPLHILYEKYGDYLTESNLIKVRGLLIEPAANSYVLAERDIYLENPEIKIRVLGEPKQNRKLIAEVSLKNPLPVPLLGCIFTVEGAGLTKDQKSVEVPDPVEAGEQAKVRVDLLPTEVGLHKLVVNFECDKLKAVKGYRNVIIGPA
Test: biochemical
Type: biochemical
Settings: Table 1, value in brackets; read-out: IC50
Protocol: ENZYME INHIBITION BY COMPOUNDS 14a-c, 14l, 15a, 15d-k, 15m-q, 30a, 30r, 30t, 37a and 38a: For enzymology studies of these compounds, recombinant guinea pig liver TGase was expressed in Escherichia coli and effectively purified (Gillet, S. M. F. G. et al J. N., Prot. Exp. & Purif. 2004, 33, 256). The mode of inhibition was determined for the representative lead compound 14a through non-linear regression of initial rate data to the Michaelis-Menten equation (FIG. 1). […]
Field: numeric (µM). Do not append units.

Past entries and their recorded results:
{"compound": "O=C(C=Cc1cccc([N+](=O)[O-])c1)On1nnc2ccccc21 [Compound 14b, m-Nitrocinnamoyl oxybenzotriazolyl amide]", "unit_of_measure": "µM", "IC50": 24}
{"compound": "O=C(/C=C/c1ccc([N+](=O)[O-])cc1)c1cccnc1 [Compound 30a]", "unit_of_measure": "µM", "IC50": 21}
{"compound": "CC(C)(C)OC(=O)Nc1cccc(C=CC(=O)n2nnc3ccccc32)c1 [Compound 15o]", "unit_of_measure": "µM", "IC50": 39}

Next, consider the following compound.
Lookup: Supply IC50 value. Item: O=C(C=Cc1cccc(Cl)c1)On1nnc2ccccc21 [Compound 14l]
Found: 41

* * *

Target: recombinant guinea pig liver TGase (Cavia cutleri (Guinea pig), UniProt P08587)
Experiment: biochemical
Type: biochemical
Conditions: IC50 (μM), class symbol, Table 6, Huisgen [3+2] cycloaddition products
Reported IC50 values are given for each entry in this list.

{"smiles_string": "O=C(/C=C/c1ccc([N+](=O)[O-])cc1)c1cn(Cc2ccccc2[N+](=O)[O-])nn1", "IC50": "< 20 µM"}

Lookup: Supply IC50 value. Item: O=C(/C=C/c1ccc([N+](=O)[O-])cc1)c1cn(Cc2cccc([N+](=O)[O-])c2)nn1
Found: < 20 µM

* * *

Reported IC50 values are given for each entry in this list.
Target: recombinant guinea pig liver TGase (Cavia cutleri (Guinea pig), UniProt P08587)
Assay: biochemical
Format: biochemical
Settings: read-out: IC50
Field: numeric (µM). Do not append units.

Past entries and their recorded results:
{"compound": "O=C(/C=C/c1ccc([N+](=O)[O-])cc1)c1cn(Cc2ccc([N+](=O)[O-])cc2)nn1", "unit_of_measure": "µM", "IC50": 2.1}
{"compound": "CCCCCCCCn1cc(C(=O)/C=C/c2ccc([N+](=O)[O-])cc2)nn1", "unit_of_measure": "µM", "IC50": 28.5}

Lookup: Supply IC50 value. Item: COc1ccc(Cn2cc(C(=O)/C=C/c3ccc([N+](=O)[O-])cc3)nn2)cc1
Found: 14

Lookup: Supply IC50 value. Item: O=C(/C=C/c1ccc([N+](=O)[O-])cc1)c1cn(Cc2cnn[nH]2)nn1
Found: 33

* * *

Biological target: recombinant guinea pig liver TGase (Cavia cutleri (Guinea pig), UniProt P08587)
Test: biochemical
Type: biochemical
Conditions: Table 1, substituent on the cinnamoyl aromatic group; read-out: IC50 (μM), class symbol
recorded_metric: IC50

Past entries and their recorded results:
{"compound": "COC(=O)c1ccc(/C=C/C(=O)n2nnc3ccccc32)cc1 [Compound 15q]", "IC50": "20 to 50 µM"}
{"compound": "O=C(Nc1ccc(C=CC(=O)n2nnc3ccccc32)cc1)OCC1c2ccccc2-c2ccccc21 [Compound 15p]", "IC50": "20 to 50 µM"}
{"compound": "Cc1ccc(/C=C/C(=O)n2nnc3ccccc32)cc1 [Compound 15g, p-Methylcinnamoyl benzotriazolyl amide]", "IC50": "> 50 µM"}

Lookup: Supply IC50 value. Item: COc1ccc(/C=C/C(=O)n2nnc3ccccc32)cc1 [Compound 15d, p-Methoxycinnamoyl benzotriazolyl amide]
Found: > 50 µM

Lookup: Supply IC50 value. Item: CC(C)(C)OC(=O)Nc1cccc(C=CC(=O)n2nnc3ccccc32)c1 [Compound 15o]
Found: 20 to 50 µM

Lookup: Supply IC50 value. Item: O=C(C=Cc1ccc([N+](=O)[O-])cc1)On1nnc2ccccc21 [Compound 14a, p-Nitrocinnamoyl oxybenzotriazolyl amide]
Found: 20 to 50 µM

Lookup: Supply IC50 value. Item: COc1cccc(/C=C/C(=O)n2nnc3ccccc32)c1 [Compound 15e, m-Methoxycinnamoyl benzotriazolyl amide]
Found: > 50 µM

* * *

Target: recombinant guinea pig liver TGase (Cavia cutleri (Guinea pig), UniProt P08587)
Experiment: biochemical
Assay type: biochemical
Conditions: Table 6, Huisgen [3+2] cycloaddition products; read-out: IC50 (μM), class symbol
recorded_metric: IC50

Lookup: Supply IC50 value. Item: O=C(/C=C/c1ccc([N+](=O)[O-])cc1)c1cn(Cc2cc(C(F)(F)F)cc(C(F)(F)F)c2)nn1
Found: > 50 µM

* * *

Target: recombinant guinea pig liver TGase (Cavia cutleri (Guinea pig))
Assay: biochemical
Format: biochemical
Conditions: Table 2, value in brackets or words; read-out: IC50
recorded_metric: IC50

Past entries and their recorded results:
{"compound": "O=C(OCc1ccc([N+](=O)[O-])cc1)n1nnc2ccccc21 [Compound 32a, p-Nitrobenzyloxycarbonylbenzotriazole]", "IC50": "> 200 µM"}
{"compound": "O=C(CCc1ccc([N+](=O)[O-])cc1)n1nnc2ccccc21 [Compound 33a]", "IC50": "> 200 µM"}
{"compound": "O=C(/C=C/C=C/c1ccc([N+](=O)[O-])cc1)n1nnc2ccccc21 [Compound 37a]", "IC50": "> 200 µM"}

Lookup: Supply IC50 value. Item: O=C(/C=C/c1ccc([N+](=O)[O-])cc1)n1nnc2ccccc21 [Compound 15a, p-Nitrocinnamoyl benzotriazolyl amide]
Found: 74 µM

* * *

Target: recombinant guinea pig liver TGase (Cavia cutleri (Guinea pig), UniProt P08587)
Assay: biochemical
Format: biochemical
pIC50: −log10 of the molar value.
Reported pIC50 values are given for each entry in this list.

{"smiles_string": "O=C(/C=C/c1ccc([N+](=O)[O-])cc1)c1cn(C(c2ccccc2)c2ccccc2)nn1", "pIC50": "< 4.30"}
{"smiles_string": "O=C(/C=C/c1ccc([N+](=O)[O-])cc1)c1cn(Cc2cnn[nH]2)nn1", "pIC50": "4.30 to 4.70"}
{"smiles_string": "COc1ccc(Cn2cc(C(=O)/C=C/c3ccc([N+](=O)[O-])cc3)nn2)cc1", "pIC50": "> 4.70"}
{"smiles_string": "O=C(/C=C/c1ccc([N+](=O)[O-])cc1)c1cn(Cc2c(F)c(F)c(F)c(F)c2F)nn1", "pIC50": "< 4.30"}

Next, consider the following molecule.
Lookup: Determine reported pIC50 for O=C(/C=C/c1ccc([N+](=O)[O-])cc1)c1cn(CC2CCCCC2)nn1 ; test system: recombinant guinea pig liver TGase (Cavia cutleri (Guinea pig), UniProt P08587).
Found: > 4.70

* * *

Target: recombinant guinea pig liver TGase (Cavia cutleri (Guinea pig))
Test: biochemical
Type: biochemical
Conditions: Table 6, value in brackets; read-out: IC50
pIC50: −log10 of the molar value.
recorded_metric: pIC50

Lookup: Supply pIC50 value. Item: O=C(/C=C/c1ccc([N+](=O)[O-])cc1)c1cn(Cc2cc(C(F)(F)F)cc(C(F)(F)F)c2)nn1
Found: < 4.00

* * *

Reported pIC50 values are given for each entry in this list.
Biological target: recombinant guinea pig liver TGase (Cavia cutleri (Guinea pig), UniProt P08587)
Experiment: biochemical
Format: biochemical
Details: Table 1, value in brackets; read-out: IC50
Schema: pIC50 number; meaning minus log10 of the concentration expressed in molar units.

Past entries and their recorded results:
{"molecule": "O=C(Nc1ccc(C=CC(=O)n2nnc3ccccc32)cc1)OCC1c2ccccc2-c2ccccc21 [Compound 15p]", "pIC50": 4.60}
{"molecule": "CC(=O)Nc1ccc(/C=C/C(=O)c2cccnc2)cc1 [Compound 30t]", "pIC50": 4.55}

Next, consider the following molecule.
Lookup: Supply pIC50 value. Item: CC(C)(C)OC(=O)Nc1ccc(C=CC(=O)n2nnc3ccccc32)cc1 [Compound 15n]
Found: 4.74
